Target: T1, histidine-tagged human Siglec-7 (NovoProtein) (human, UniProt Q9Y286 19-353)
T1 construct: Bought protein; also called recombinant human Siglec-7; recombinant Siglec-7; not shown: histidine tag
T1 sequence (Q9Y286 19-353 limits assumed): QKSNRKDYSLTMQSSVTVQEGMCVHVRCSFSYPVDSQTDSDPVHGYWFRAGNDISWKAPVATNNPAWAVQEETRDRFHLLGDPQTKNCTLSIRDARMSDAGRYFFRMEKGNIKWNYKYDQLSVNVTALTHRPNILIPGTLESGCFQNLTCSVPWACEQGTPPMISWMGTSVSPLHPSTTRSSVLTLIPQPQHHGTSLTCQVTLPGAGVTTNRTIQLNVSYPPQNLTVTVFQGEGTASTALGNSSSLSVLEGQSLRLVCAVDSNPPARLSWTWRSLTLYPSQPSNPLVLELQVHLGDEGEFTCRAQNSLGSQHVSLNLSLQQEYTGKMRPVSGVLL
Experiment: BLI (ForteBio), antibody captured
experimental readout: pKd
Quick note: pKd values are minus log10 of concentrations in mol/L.

Example results:
binder | pKd
S7AB (antibody, V domains shown, Parental mouse antibody; also called S7-10B5.1; mouse anti-human Siglec-7 antibody) VH: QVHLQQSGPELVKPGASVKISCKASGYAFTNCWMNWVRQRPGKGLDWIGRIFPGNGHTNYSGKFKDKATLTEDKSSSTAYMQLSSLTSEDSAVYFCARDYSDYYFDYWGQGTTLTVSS VL: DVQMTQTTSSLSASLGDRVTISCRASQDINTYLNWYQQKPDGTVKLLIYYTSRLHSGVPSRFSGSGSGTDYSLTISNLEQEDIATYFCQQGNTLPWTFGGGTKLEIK | 8.91
S7AB-H11 (antibody, V domains shown) VH: QVQLVQSGAEVKKPGASVKISCKASGYAFTNCWMNWVRQAPGQGLEWIGRIFPGNGHTNYAQKFQGRATLTEDTSTSTAYMELSSLRSEDTAVYYCARDYSDYYFDYWGQGTLLTVSS VL: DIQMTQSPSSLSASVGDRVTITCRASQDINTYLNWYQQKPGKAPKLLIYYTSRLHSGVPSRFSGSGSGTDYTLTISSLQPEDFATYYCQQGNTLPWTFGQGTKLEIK | 8.97
S7AB-H9 (antibody, V domains shown) VH: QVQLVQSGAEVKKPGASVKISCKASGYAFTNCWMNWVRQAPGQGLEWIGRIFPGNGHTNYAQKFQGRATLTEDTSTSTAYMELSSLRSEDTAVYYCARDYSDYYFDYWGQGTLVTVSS VL: DVQMTQSPSSLSASVGDRVTITCRASQDINTYLNWYQQKPGKAPKLLIYYTSRLHSGVPSRFSGSGSGTDYTLTISSLQPEDFATYYCQQGNTLPWTFGQGTKLEIK | 9.13

# input Give recorded pKd. S7AB-H12 (antibody, V domains shown) VH: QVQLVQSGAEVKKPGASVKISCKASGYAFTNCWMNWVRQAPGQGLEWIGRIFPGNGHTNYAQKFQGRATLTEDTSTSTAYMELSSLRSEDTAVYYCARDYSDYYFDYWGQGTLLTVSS VL: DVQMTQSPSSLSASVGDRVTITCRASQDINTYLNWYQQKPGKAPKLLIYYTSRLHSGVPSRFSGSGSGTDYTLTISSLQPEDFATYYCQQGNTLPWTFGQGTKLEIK
# output 9.00

src = patent US20210246204A1
